test system: MCF7; experiment: Cytotoxicity against human MCF7 cells assessed as decrease in cell viability after 5 days by celltiterGlo assay; format: functional, cell-based; conditions: MCF7, 120 h
Rule for this label: t means IC50 is less than 4 nM; f means IC50 is at least 4 nM.

[
  {
    "Molecule": "CC/C(=C(/c1ccc(/C=C/C(=O)O)cc1)c1ccc2[nH]ncc2c1C)c1ccccc1",
    "Class Name": "f"
  },
  {
    "Molecule": "CC/C(=C(/c1ccc(/C=C/C(=O)O)cc1)c1cc(C)c2[nH]ncc2c1)c1ccccc1",
    "Class Name": "f"
  },
  {
    "Molecule": "COc1ccc(/C(=C(\\c2ccc(/C=C/C(=O)O)cc2)c2ccc3[nH]nc(F)c3c2)C2CCC2)c(Cl)c1",
    "Class Name": "t"
  },
  {
    "Molecule": "CC/C(=C(/c1ccc(/C=C/C(=O)O)cc1)c1ccc2[nH]ncc2c1F)c1ccccc1",
    "Class Name": "t"
  },
  {
    "Molecule": "C[C@]12CC[C@@H]3c4ccc(O)cc4C[C@@H](CCCCCCCCC[S+]([O-])CCCC(F)(F)C(F)(F)F)[C@H]3[C@@H]1CC[C@@H]2O (some centres undefined) [FULVESTRANT]",
    "Class Name": "t"
  }
]

Does this molecule meet the criterion IC50 < 4 nM? "O=C(O)/C=C/c1ccc(/C(=C(\c2ccccc2)C2CCCCC2)c2ccc3[nH]ncc3c2)cc1"
f
